- Test system: chloroquine-resistant Dd2 Plasmodium falciparum parasites
- testDescription: SYBR Green I antiplasmodial assay against chloroquine-resistant Dd2 parasites
- Type: cell-based
- statedConditions: DD2, read-out: EC50 against Dd2
valueType: EC50

Give reported EC50 value for `COC(=O)[C@H]1[C@H]2C[C@@H]3c4[nH]c5cc(OC)ccc5c4CCN3C[C@H]2C[C@@H](OC(=O)c2cc(OC)c(OC)c(OC)c2)[C@@H]1OC`
> 100 µM
